B1: glmS ribozyme (parent)
chain: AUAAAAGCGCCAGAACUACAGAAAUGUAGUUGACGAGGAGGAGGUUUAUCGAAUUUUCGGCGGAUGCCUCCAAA

- Variants of: B1
- assay_overview: self-cleavage kobs at 40 uM GlcN6P; higher = faster cleavage; RNA array
- measurement_setup: with glucosamine-6-phosphate
This sample holds only a part of the variants without activity.
property_label: self-cleavage kobs at 40 uM GlcN6P

Exam item: Data request, read-out self-cleavage kobs at 40 uM GlcN6P, for AUAAAAGCGCCAGAACUACAGAAAUGUACUUGACGAGGAGGAGGUUUCUCGAAUUUUCGGCGGAUGCCUCCAAA [G29C A48C]
Marked response: < 1e-05 s⁻¹

Exam item: Moving on to the next variant: AUAAAAGCGCCAGAACUACAGAAAUGUAGUUGACGACGGGGAGGUUUAUUGAAUUUUCGGCGGAUGCCUCCAAA [G37C A39G C50U]
Marked response: < 1e-05 s⁻¹

Exam item: What about this variant? AUAAAAGCGCCAGAACUACAGAAAUGUAGUUGACGAGUAGGAGGUUUAUCGAAUUUGCGGCGGAUGUCUUCAAA [G38U U57G C67U C70U]
Marked response: 8e-05 s⁻¹

Exam item: And then AUAAAAGCGCCAGAACUACAGAAAUGUAGUUGACGACGAGGAGGUUUAUCGUUUUUUCGGCGGAUGCCUCCAAA [G37C A52U A53U] , what is it?
Marked response: < 1e-05 s⁻¹

Exam item: Next: AUAAAAGCGGCAGAACUACAGAAAUGUAGUUGCCGAGGAGGAGGUUUAUCGAAUUUUCGGCGGAUGCCUCCAAA [C10G A33C]
Marked response: < 1e-05 s⁻¹

Exam item: Try this variant too: AUAAAAGCGCCAGAACUACAGAAAUGUAGGUCACGAGGGGGAGGCUUAUCGUAUUUUCGGCGAAUGCCUCCAAA [U30G G32C A39G U45C A52U G63A]
Marked response: < 1e-05 s⁻¹

Exam item: Now give it for AUAAAAGAGCCAGGACUACAGAAAUGUAGUUGACGAGGAGGAGGUUUAUCGAAUUUCCGGCGGAUGCCUCCAAA [C8A A14G U57C] too.
Marked response: < 1e-05 s⁻¹

Exam item: And for AUAAAAGCUCCAAAACUACAGAAAUGUAGUUGACGUGAAGGAGGUUUAUCGAAUUUUCGGCGGAGGCCUCCAAA [G9U G13A A36U G38A U65G] ?
Marked response: < 1e-05 s⁻¹

Exam item: Follow-up item: AUAAAAGAGCCAGAACUACAGAAAUGUAGUUGACGAGCAGGAGGUUUAUCGAAUUUUCGGCGGAUGCCUCCAAA [C8A G38C]
Marked response: < 1e-05 s⁻¹

Exam item: Entry AUAAAAGCGCCAGGACUACAGAAAUGUAGUUGACGAGGAGGAGGUUAAUAGAAUUUUCGGCGGAUGCCUCCAAA [A14G U47A C50A] please
Marked response: < 1e-05 s⁻¹

Exam item: Also need AUAAAAGCGCCAGAACUACAGAAAUGUAGUUUACGAGGAGGAGGUUUAUCGAAUUUUCGGCGGAUGCCUCCAAA [G32U] , thanks.
Marked response: 1.52e-05 s⁻¹

Exam item: What would you report for AUAAAAGCGCCAGAAAUACAGAAAUGUAGUUGACGAGGAGGAGGUUUAUCGAAUUUUCGGCUGAUGCCUCCAAA [C16A G62U] ?
Marked response: < 1e-05 s⁻¹

Exam item: Would you kindly repeat that for AUAAAAGCGCCAGAACUACAGAAAUGUAGUUGACGAGGAGGAGGUUUAUCAAAUGUUCGGCGGAUGCGUCCAAA [G51A U55G C68G] ?
Marked response: < 1e-05 s⁻¹

Exam item: Another variant to check: AUAAAACCGCCAGAACUACAGAAAUGUAGUUGUCGAGGAGGAGGUUUUUCGAAUUUUCGGCGGAUGCCUCCAAA [G7C A33U A48U]
Marked response: < 1e-05 s⁻¹

Exam item: Can you check AUAAAAGCGCCAGAACUACAGAAAUGUAGUCGACGAGGAGGAGGUUUAUAGAAUUUUCGGCGGAUGCCUCCAAA [U31C C50A] next?
Marked response: < 1e-05 s⁻¹

Exam item: Param item: AUAAAAGCGCCAGAGCUACAGAAAUGUAGUUGACCAGGAGGAGGUUUAUCGAAUUUUCGGCGGAUGCCUCCAAA [A15G G35C]
Marked response: < 1e-05 s⁻¹

Exam item: Please do the same for AUAAAAGCGCCAGAACUACAGAAAUGUAGUUGACGAGGAGGGGGUUGAUCGAAUUUUCGGCGGAUGCCUCCAAA [A42G U47G] as well.
Marked response: 0.000293 s⁻¹

Exam item: Next variant up: AUAAAAGCGCCAGAACUACAGAAAUGUAGUUCACGAGGAAGAGGUUUAUUGAAUUUUCGGCGGAUGCAUCCAAA [G32C G40A C50U C68A]
Marked response: < 1e-05 s⁻¹

Exam item: Field entry: AUAAAAGCGCCAGAACUACAGAAAUGUAGUUGACUAGGAGGAGGAUUAUGGAAUUUUCGGCGGAUGCCUCCAAA [G35U U45A C50G]
Marked response: < 1e-05 s⁻¹

Exam item: Same question, AUAAAAGCGCCAGAACUACAGAAAUGUAGUUGACGCGGAGGAGGUUUAUCGAAUUUUCGGCGGAUACCUCCAAA [A36C G66A] this time
Marked response: < 1e-05 s⁻¹

Exam item: Now give it for AUAAAAACGCCAGACCUACAGAAAUGUAGUUGACGAGGAGGAGGUUUAUUGAAUUUUCGGCGGAUGCCUACAAA [G7A A15C C50U C70A] too.
Marked response: 0.000237 s⁻¹

Exam item: Same again, this time with AUAAAAGCGCCAGAACUACAGAAAUGUAGUUGACGAGGAGGAGGUUUAUCGAAUCUUCGGCGGAUUCCUCCAAA [U55C G66U]
Marked response: 6.69e-05 s⁻¹

Exam item: Try this variant next: AUAAAGGCGCCAGAACUACAGAAAUGUAGUUGACGAGGAGGAGGUUUAUCGAAUUUUCGGCGGAUGCCUCAAAA [A6G C71A]
Marked response: < 1e-05 s⁻¹

Exam item: // query: AUAAAAGCGCCAGAACUACAGAAAUGUAAUUGACGAGUGGGAGGUUUAUCGAAUUUUAGGCGGAUACCUCCAAA [G29A G38U A39G C58A G66A]
Marked response: < 1e-05 s⁻¹

Exam item: Now the same for AUAAAAGCGCCCGAACUACAGAAAUGUAGUUGAGGAGGAGGAGGUUUAUCGAAUUUUCGGCGGAUGCCUCCAAA [A12C C34G]
Marked response: < 1e-05 s⁻¹

Exam item: Do the same for AUAAAAGCGCCAGAACUACAGAAAUGUAGUUGACGAGGAGGAGGUGUAUCCAAUUUUCGGCGGAUGGCUCCAAA [U46G G51C C67G] please
Marked response: < 1e-05 s⁻¹

Exam item: Subsequent entry: AUAAAAGCGCCAGAACUACAGAAAUGUAGUUGACGAGGAGGAGGUUUCUCGAAUUUUCGGCGUAUGCCUCCAAA [A48C G63U]
Marked response: < 1e-05 s⁻¹

Exam item: Same for AUAAACGCGCCAGAACUACAGAAAUGUAGUUGACGAGGAGGAGGUUUAUCGAAUUUUCGGCGGAUGGCUCCAAA [A6C C67G]
Marked response: < 1e-05 s⁻¹

Exam item: Likewise for AUAAAAGCGCCAGAAUUACAGAAAUGUAGUUGACGAGGAGGAGGUUGAUCGAAUUUUCGGCGGAUGCCUCCAAA [C16U U47G] ?
Marked response: 0.000296 s⁻¹

Exam item: // next record AUAAAAGUGCCAGAACUACAGAAAUGUAGUUGACGAGGAGGAGGUUUAUCGACUUUUCGGCGGAUGCCUCCAAA [C8U A53C]
Marked response: < 1e-05 s⁻¹

Exam item: Then what about the variant AUAAAAGCGCCAGAACUACAGAAAUGUAGUUGACGAGGAGGAGGAUUAUCGAAUUUUCGGCGGAUGCCUGCAAA [U45A C70G] ?
Marked response: 0.000107 s⁻¹

Exam item: Repeat with AUAAAAGCGCCAGAACUACAGAAAUGUAGUUGACGAGGAGGAGGUUUAUCGAAUUUGCGGCGGAUGCGUCCAAA [U57G C68G]
Marked response: 2.48e-05 s⁻¹

Exam item: Likewise for AUAAAAGCGUCAGAACUACAGAAAUGUAGUUUACGAGGAGGAGGUUUAUCGAAUUUUCGGCGGCUGCCUCCAAA [C10U G32U A64C] ?
Marked response: < 1e-05 s⁻¹

Exam item: Consider next the variant AUAAAAGCGCCAGAACUACAGAAAUGUAGUUGACGAGGUGGAGGUUUAUCGAAUUUUCGGCGGAUGCCUCUAAA [A39U C71U] in the same way.
Marked response: 0.000702 s⁻¹

Exam item: Please answer likewise for AUAAAAGCGCCAGAACUACAGAAAUGUAGUUGACGAGGAGGAGGUUUAUCGAAUGUUCGGCGGAUGCCACCAAA [U55G U69A]
Marked response: 4.44e-05 s⁻¹

Exam item: What about this variant? AUAAAAACGCCAGAACUACAGAAAUGUAGUUGACGAGGAGGAGGUUUAUCGAAUUCUCGGCGGAUGUUUCCAAA [G7A U56C C67U C68U]
Marked response: < 1e-05 s⁻¹

Exam item: Also need AUAAAAGCGCCAGACCUACAGAAAUGUAGUUGACGAGGCGGAGGUUUAUCGAAUUUUCGGCGGAUGCCUCCAAA [A15C A39C] , thanks.
Marked response: 2.08e-05 s⁻¹

Exam item: Do the same for AUAAAAGCGCCAGAACUACAGAAAUGUAGUUGACGAUGAGGAGGUUUAUCGAAUUUUCGGCGGAUGCCUCUAAA [G37U C71U] please
Marked response: < 1e-05 s⁻¹

Exam item: Another variant to look at: AUAAAAGCGCCAGAACUACAGAAAUGUAGUUGACGAGGAGGAGGUUUAUCGAAUACUCGGCGGAUGCCUCCAAA [U55A U56C]
Marked response: 0.00013 s⁻¹

Exam item: What about AUAAAAGCGCCAGAACUACAGAAAUGUAGUUGACGAGGAGGAGGUUUAUGGAAUUUUAGGCGGAUGCCUUCAAA [C50G C58A C70U] ?
Marked response: 9.84e-05 s⁻¹

Exam item: Next entry: AUAAAAGCGCCAGAACUACAGAAAUGUAGUUGACCAGGAGGAGGUUUAUCGAAUUUUCGGCGGAUGCUUCCAAA [G35C C68U]
Marked response: < 1e-05 s⁻¹

Exam item: Next entry: AUAAAGGCGCCAGAACUACAGAAAUGUACUUGACGAGGAGGAGGUUUAUCAAAUUUUCGGCGGAUGCCUCCAAA [A6G G29C G51A]
Marked response: < 1e-05 s⁻¹

Exam item: Another variant: AUAAAAGCGCCAGACCUACAGAAAUGUAGUUGACGAGGAGGAGGUUUAUCGAAUUUUCGGCGGAUACCUCCAAA [A15C G66A]
Marked response: 8.43e-05 s⁻¹

Exam item: Same lookup for AUAAAAGCGCCAGAACUACAGAAAUGUAGCUGACGAGGAGGAGGUUUAUCGCAUUUUCGGCGGCUGCCUCCAAA [U30C A52C A64C] , please.
Marked response: < 1e-05 s⁻¹

Exam item: Another variant to look at: AUAAAAGCGCCAGACCUACAGAAAUGUAAUUGACGAGGAGGAGGUUUAUCGAAUUUUCGACGGAUGCCUCCAAA [A15C G29A G60A]
Marked response: < 1e-05 s⁻¹

Exam item: Next variant up: AUAAAAGCGCCAGAACUACAGAAAUGUAUUUGACGAGGAGGAGGUUUAUCGAAUCUUCGGCGGAUGCCUCCAAA [G29U U55C]
Marked response: 0.000123 s⁻¹
